- Measured Target: T1, human CD48 (on primary human peripheral blood mononuclear cells) (human, UniProt P09326 27-220)
- T1 sequence: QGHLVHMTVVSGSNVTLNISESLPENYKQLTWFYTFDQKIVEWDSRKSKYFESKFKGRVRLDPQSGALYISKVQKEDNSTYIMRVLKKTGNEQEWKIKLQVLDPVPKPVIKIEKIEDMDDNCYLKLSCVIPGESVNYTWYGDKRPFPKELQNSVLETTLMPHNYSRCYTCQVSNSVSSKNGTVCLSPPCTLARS
- Method Notes: cell-based or functional assay
Observation Type: % Blockade of IFNγ release, MLR; D9 (%)
Answer with a number only, understood to be in %.

Could you share which % Blockade of IFNγ release, MLR; D9 value was measured for H4H1772P (antibody, human IgG4, V domains shown, Human IgG4 Fc (H4H)) VH: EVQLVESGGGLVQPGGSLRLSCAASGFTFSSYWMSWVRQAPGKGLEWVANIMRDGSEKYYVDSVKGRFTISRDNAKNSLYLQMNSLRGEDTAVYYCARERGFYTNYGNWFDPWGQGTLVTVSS VL: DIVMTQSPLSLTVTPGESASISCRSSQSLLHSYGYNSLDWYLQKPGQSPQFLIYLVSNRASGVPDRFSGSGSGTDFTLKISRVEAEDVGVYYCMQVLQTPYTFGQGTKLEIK ?
59

Data credit: patent US20130230533A1
